B1: tRNA (parent)
chain: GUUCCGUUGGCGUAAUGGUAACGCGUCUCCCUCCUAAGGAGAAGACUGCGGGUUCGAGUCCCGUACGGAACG

variants of: B1; assay: yeast fitness relative to wild type (ratio to wild type); higher = fitter; tRNA-Arg(CCU), competitive growth, 37 C, YPD
Fewer inactive variants are shown than the library holds.
Parameter threshold = 0.7. Response is Fulfilled when yeast fitness meets or exceeds it, else Not fulfilled.

[
  {
    "Mutant id": "A15C G17A A57G A65G",
    "Group": "Not fulfilled"
  },
  {
    "Mutant id": "U3G C11U U19C A20U A42C A65C",
    "Group": "Not fulfilled"
  },
  {
    "Mutant id": "G6C G38C C60A",
    "Group": "Not fulfilled"
  },
  {
    "Mutant id": "A20U G48C U53C G68C",
    "Group": "Not fulfilled"
  },
  {
    "Mutant id": "C22U G25A",
    "Group": "Fulfilled"
  },
  {
    "Mutant id": "C11U U19C A20U A42C A65C A69U",
    "Group": "Not fulfilled"
  },
  {
    "Mutant id": "A15G U26G A57G",
    "Group": "Not fulfilled"
  },
  {
    "Mutant id": "G17A C55A",
    "Group": "Not fulfilled"
  },
  {
    "Mutant id": "A42G A45G",
    "Group": "Fulfilled"
  },
  {
    "Mutant id": "C4U A15U A20C G23A G50C",
    "Group": "Not fulfilled"
  },
  {
    "Mutant id": "U26C C61G C62G",
    "Group": "Not fulfilled"
  },
  {
    "Mutant id": "G25A C61U G63C",
    "Group": "Not fulfilled"
  },
  {
    "Mutant id": "C5U U7C U26C U28C C29G C34A",
    "Group": "Not fulfilled"
  },
  {
    "Mutant id": "C31A A45U A70U",
    "Group": "Fulfilled"
  },
  {
    "Mutant id": "A15C U19A C30U A37C G41A",
    "Group": "Not fulfilled"
  },
  {
    "Mutant id": "G10A G12C C31U",
    "Group": "Not fulfilled"
  },
  {
    "Mutant id": "C22U A43C A70C",
    "Group": "Not fulfilled"
  },
  {
    "Mutant id": "U16A C29U",
    "Group": "Fulfilled"
  },
  {
    "Mutant id": "C31G U47G U53G C61U G68A",
    "Group": "Not fulfilled"
  },
  {
    "Mutant id": "U32G C33U A37G A43C",
    "Group": "Not fulfilled"
  },
  {
    "Mutant id": "U16C C24A",
    "Group": "Not fulfilled"
  },
  {
    "Mutant id": "C30U A45G G48C G58C U59A",
    "Group": "Not fulfilled"
  },
  {
    "Mutant id": "G48A U54C C66U",
    "Group": "Not fulfilled"
  },
  {
    "Mutant id": "U2C C24U",
    "Group": "Fulfilled"
  },
  {
    "Mutant id": "C5A C22A G50C",
    "Group": "Fulfilled"
  },
  {
    "Mutant id": "G38A C62G A70U",
    "Group": "Not fulfilled"
  },
  {
    "Mutant id": "A21G A43U G58C U59C",
    "Group": "Not fulfilled"
  },
  {
    "Mutant id": "C22G G25A",
    "Group": "Fulfilled"
  },
  {
    "Mutant id": "A20G A40G G44A C46G",
    "Group": "Not fulfilled"
  },
  {
    "Mutant id": "C11U U13C C29U A37C C46A",
    "Group": "Not fulfilled"
  },
  {
    "Mutant id": "G23A C34A A43U U47C",
    "Group": "Not fulfilled"
  },
  {
    "Mutant id": "U13C C27G U35G C49G A57C",
    "Group": "Not fulfilled"
  },
  {
    "Mutant id": "C30G A40C U64A",
    "Group": "Not fulfilled"
  },
  {
    "Mutant id": "G6A C27G A36C A42C",
    "Group": "Not fulfilled"
  }
]
